Where do the numbers come from? From patent US10597388B2.

test system: oilseed rape (Brassica napus); assay: Test C greenhouse herbicide test, pre- and postemergence; assay type: in vivo; conditions: Preemergence, 250 g ai/ha; scale 0 to 100 (0 no effect, 100 complete control)
Reported Oilseed Rape plant response rating values for a set of compounds

[
  {
    "COMPOUND": "CCOC(=O)Oc1c(C)nn(C)c(=O)c1-c1c(C)sc2ccc(C)cc12 [Compound 82]",
    "TEST TARGET": "oilseed rape (Brassica napus)",
    "Oilseed Rape plant response rating": 85
  },
  {
    "COMPOUND": "Cc1cc(C)c2ccccc2c1-c1c(OS(C)(=O)=O)c(C)nn(C)c1=O [Compound 154]",
    "TEST TARGET": "oilseed rape (Brassica napus)",
    "Oilseed Rape plant response rating": 98
  },
  {
    "COMPOUND": "CCC(=O)Oc1c(C)nn(C)c(=O)c1-c1c(C)sc2ccc(C)cc12 [Compound 42]",
    "TEST TARGET": "oilseed rape (Brassica napus)",
    "Oilseed Rape plant response rating": 20
  },
  {
    "COMPOUND": "COC(=O)Oc1c(Br)nn(C)c(=O)c1-c1c(C)ccc2ccccc12 [Compound 137]",
    "TEST TARGET": "oilseed rape (Brassica napus)",
    "Oilseed Rape plant response rating": 90
  },
  {
    "COMPOUND": "CCOC(=O)Oc1c(C)nn(C)c(=O)c1-c1c(CC)ccc2ccccc12 [Compound 37]",
    "TEST TARGET": "oilseed rape (Brassica napus)",
    "Oilseed Rape plant response rating": 90
  },
  {
    "COMPOUND": "COC(=O)Oc1c(C)nn(C)c(=O)c1-c1c(C)sc2c(C)cc(C)cc12 [Compound 81]",
    "TEST TARGET": "oilseed rape (Brassica napus)",
    "Oilseed Rape plant response rating": 95
  },
  {
    "COMPOUND": "CCC(=O)Oc1c(C)nn(C)c(=O)c1-c1ccc(Br)c2ccccc12 [Compound 133]",
    "TEST TARGET": "oilseed rape (Brassica napus)",
    "Oilseed Rape plant response rating": 90
  },
  {
    "COMPOUND": "CC(=O)Oc1c(C)nn(C)c(=O)c1-c1ccc(F)c2ccccc12 [Compound 90]",
    "TEST TARGET": "oilseed rape (Brassica napus)",
    "Oilseed Rape plant response rating": 90
  },
  {
    "COMPOUND": "COc1nn(C)c(=O)c(-c2c(C)ccc3ccccc23)c1O [Compound 54]",
    "TEST TARGET": "oilseed rape (Brassica napus)",
    "Oilseed Rape plant response rating": 100
  },
  {
    "COMPOUND": "Cc1nn(C)c(=O)c(-c2c(C)sc3ccc(Cl)cc23)c1O [Compound 104]",
    "TEST TARGET": "oilseed rape (Brassica napus)",
    "Oilseed Rape plant response rating": 95
  },
  {
    "COMPOUND": "CC(=O)Oc1c(C)nn(C)c(=O)c1-c1c(C)sc2c(C)cc(C)cc12 [Compound 27]",
    "TEST TARGET": "oilseed rape (Brassica napus)",
    "Oilseed Rape plant response rating": 98
  }
]

====

system: soybean (Glycine max); test: Test C greenhouse herbicide test, pre- and postemergence; format: in vivo; conditions: Preemergence, 250 g ai/ha; scale 0 to 100 (0 no effect, 100 complete control)
Reported Soybean plant response rating values for a set of compounds

[
  {
    "COMPOUND": "C#CCOC(=O)Oc1c(C)nn(C)c(=O)c1-c1c(C)sc2ccc(C)cc12 [Compound 87]",
    "TEST TARGET": "soybean (Glycine max)",
    "Soybean plant response rating": 0
  },
  {
    "COMPOUND": "CCCC(=O)Oc1c(C)nn(C)c(=O)c1-c1c(C)sc2c(C)cc(C)cc12 [Compound 106]",
    "TEST TARGET": "soybean (Glycine max)",
    "Soybean plant response rating": 0
  },
  {
    "COMPOUND": "COc1nn(C)c(=O)c(-c2c(C)ccc3ccccc23)c1OC(C)=O [Compound 138]",
    "TEST TARGET": "soybean (Glycine max)",
    "Soybean plant response rating": 15
  },
  {
    "COMPOUND": "CCC(=O)Oc1c(C)nn(C)c(=O)c1-c1c(C)sc2c(C)cc(C)cc12 [Compound 28]",
    "TEST TARGET": "soybean (Glycine max)",
    "Soybean plant response rating": 50
  },
  {
    "COMPOUND": "Cc1ccc2ccccc2c1-c1c(O)c(Cl)nn(C)c1=O [Compound 125]",
    "TEST TARGET": "soybean (Glycine max)",
    "Soybean plant response rating": 35
  }
]

====

Reported Pigweed plant response rating values for a set of compounds
system: pigweed (Amaranthus retroflexus); experiment: Test D controlled growth environment herbicide test, pre- and postemergence; format: in vivo; settings: Postemergence, 31 g ai/ha; scale 0 to 100 (0 no effect, 100 complete control)
Description: […]
READOUT TYPE: Pigweed plant response rating

[
  {
    "MOL": "CCC(=O)Oc1c(C)nn(C)c(=O)c1-c1c(C)sc2ccc(Cl)cc12",
    "REPORTED RESULT": 85
  },
  {
    "MOL": "Cc1nn(C)c(=O)c(-c2c(C)sc3ccc(Cl)cc23)c1O",
    "REPORTED RESULT": 100
  },
  {
    "MOL": "CCOC(=O)Oc1c(C)nn(C)c(=O)c1-c1c(C)ccc2ccccc12",
    "REPORTED RESULT": 100
  },
  {
    "MOL": "CCOC(=O)Oc1c(C)nn(C)c(=O)c1-c1c(C)sc2c(C)cc(C)cc12",
    "REPORTED RESULT": 100
  },
  {
    "MOL": "CC(=O)Oc1c(C)nn(C)c(=O)c1-c1ccc(F)c2ccccc12",
    "REPORTED RESULT": 80
  },
  {
    "MOL": "CC(=O)Oc1c(C)nn(C)c(=O)c1-c1c(C)sc2c(C)cc(C)cc12",
    "REPORTED RESULT": 75
  },
  {
    "MOL": "Cc1cc(C)c2sc(C)c(-c3c(OC(=O)OC(C)C)c(C)nn(C)c3=O)c2c1",
    "REPORTED RESULT": 75
  },
  {
    "MOL": "COC(=O)Oc1c(C)nn(C)c(=O)c1-c1c(C)sc2c(C)cc(C)cc12",
    "REPORTED RESULT": 100
  },
  {
    "MOL": "CCC(=O)Oc1c(C)nn(C)c(=O)c1-c1c(C)sc2ccc(C)cc12",
    "REPORTED RESULT": 85
  }
]

====

Reported Barnyardgrass plant response rating values for a set of compounds
system: barnyardgrass (Echinochloa crus-galli); test: Test C greenhouse herbicide test, pre- and postemergence; type: in vivo; details: postemergence, 62 g ai/ha; scale 0 to 100, 0 no effect, 100 complete control

[
  {
    "COMPOUND": "Cc1ccc2ccccc2c1-c1c(O)c(Cl)nn(C)c1=O [Compound 125]",
    "TEST TARGET": "barnyardgrass (Echinochloa crus-galli)",
    "Barnyardgrass plant response rating": 40
  },
  {
    "COMPOUND": "Cc1nn(C)c(=O)c(-c2ccc(F)c3ccccc23)c1OC(=O)CC(F)(F)F [Compound 123]",
    "TEST TARGET": "barnyardgrass (Echinochloa crus-galli)",
    "Barnyardgrass plant response rating": 25
  },
  {
    "COMPOUND": "Cc1cc(C)c2sc(C)c(-c3c(OC(=O)OC(C)C)c(C)nn(C)c3=O)c2c1 [Compound 67]",
    "TEST TARGET": "barnyardgrass (Echinochloa crus-galli)",
    "Barnyardgrass plant response rating": 35
  },
  {
    "COMPOUND": "CC(=O)Oc1c(C)nn(C)c(=O)c1-c1c(C)sc2c(C)cc(C)cc12 [Compound 27]",
    "TEST TARGET": "barnyardgrass (Echinochloa crus-galli)",
    "Barnyardgrass plant response rating": 20
  },
  {
    "COMPOUND": "CCOC(=O)Oc1c(C)nn(C)c(=O)c1-c1c(CC)ccc2ccccc12 [Compound 37]",
    "TEST TARGET": "barnyardgrass (Echinochloa crus-galli)",
    "Barnyardgrass plant response rating": 20
  }
]

====

Reported Plant response rating, Morningglory values for a set of molecules
tested on: morningglory (Ipomoea coccinea); experiment: Test C greenhouse herbicide test, pre- and postemergence; type: in vivo; conditions: Postemergence, 31 g ai/ha; scale 0 to 100 (0 no effect, 100 complete control)
Source text: […]
READOUT TYPE: Plant response rating, Morningglory

[
  {
    "MOL": "Cc1nn(C)c(=O)c(-c2c(C)sc3ccc(Cl)cc23)c1O",
    "REPORTED RESULT": 98
  },
  {
    "MOL": "COC(=O)Oc1c(C)nn(C)c(=O)c1-c1c([N+](=O)[O-])ccc2ccccc12",
    "REPORTED RESULT": 60
  },
  {
    "MOL": "CC(=O)Oc1c(Br)nn(C)c(=O)c1-c1c(C)ccc2ccccc12",
    "REPORTED RESULT": 98
  },
  {
    "MOL": "CC(=O)Oc1c(C)nn(C)c(=O)c1-c1c([N+](=O)[O-])ccc2ccccc12",
    "REPORTED RESULT": 80
  },
  {
    "MOL": "COc1nn(C)c(=O)c(-c2c(C)ccc3ccccc23)c1OC(C)=O",
    "REPORTED RESULT": 98
  },
  {
    "MOL": "COC(=O)Oc1c(Br)nn(C)c(=O)c1-c1c(C)ccc2ccccc12",
    "REPORTED RESULT": 100
  },
  {
    "MOL": "Cc1nn(C)c(=O)c(-c2cccc3ccc(C#N)cc23)c1O",
    "REPORTED RESULT": 65
  },
  {
    "MOL": "CCC(=O)Oc1c(C)nn(C)c(=O)c1-c1ccc(Br)c2ccccc12",
    "REPORTED RESULT": 100
  },
  {
    "MOL": "Cc1nn(C)c(=O)c(-c2ccc(F)c3ccccc23)c1OC(=O)CC(F)(F)F",
    "REPORTED RESULT": 95
  },
  {
    "MOL": "CC(=O)Oc1c(C)nn(C)c(=O)c1-c1c(C)cc(C)c2ccccc12",
    "REPORTED RESULT": 98
  },
  {
    "MOL": "CSCC(=O)Oc1c(C)nn(C)c(=O)c1-c1cccc2ccccc12",
    "REPORTED RESULT": 90
  }
]
